System: HIV (TM)
experiment: HIV infectivity assay in MT-2 cells (HIV antigen expression by immunofluorescence, 14 days)
Type: cell-based
experimentalConditions: in words
Where a name gives a salt, the structure may show the parent alone.
quantityMeasured: anti-HIV activity profile according to ED50

**Query** Would you kindly share the measured anti-HIV activity profile according to ED50 for Cc1cn(C2CC(N=[N+]=[N-])C(COP(=O)(O)OCC3OC(n4cc(C)c(=O)[nH]c4=O)CC3N=[N+]=[N-])O2)c(=O)[nH]c1=O (stereo not drawn) [AZT-P-AZT, reference compound] ?
**Result** most potent

**Query** Nc1ncnc2c1ncn2[C@H]1CC[C@@H](CO)O1 [ddA, 2',3'-dideoxyadenosine, reference compound] , same question.
**Result** weaker activities

**Query** O=c1[nH]cnc2c1ncn2[C@H]1CC[C@@H](CO)O1 [ddI, 2',3'-dideoxyinsine, reference compound] , same question.
**Result** weaker activities

**Query** Cc1cn([C@H]2C[C@H](N=[N+]=[N-])[C@@H](COP(=O)(O)OC[C@@H]3CC[C@H](n4cnc5c(=O)[nH]cnc54)O3)O2)c(=O)[nH]c1=O [AZT-P-ddI, phosphate ammonium salt] , same question.
**Result** most potent

**Query** Cc1cn([C@H]2C[C@H](N=[N+]=[N-])[C@@H](COP(=O)(O)OC[C@@H]3CC[C@H](n4cnc5c(N)ncnc54)O3)O2)c(=O)[nH]c1=O [AZT-P-ddA, phosphate ammonium salt] , same question.
**Result** most potent

---
**Query** Would you kindly share the measured anti-HIV activity profile according to ED50 for Cc1cn([C@H]2C[C@H](N=[N+]=[N-])[C@@H](COP(=O)(OCCC#N)OC[C@@H]3CC[C@H](n4cnc5c(N)ncnc54)O3)O2)c(=O)[nH]c1=O (stereo partly drawn) [AZT-P(CyE)-ddA] ?
**Result** most potent

----------
Each item that follows carries a reported pEC50.
Tested on: HIV (TM)
experiment: HIV infectivity assay in MT-2 cells (HIV antigen expression by immunofluorescence, 14 days)
Type: cell-based
experimentalConditions: Human immunodeficiency virus 1, MT2, 336 h, read-out: ED50 (drug concentration achieving 50% inhibition of HIV expression assessed by immunofluorescence)
Where a name gives a salt, the structure may show the parent alone.
Conceptually, pEC50 converts a concentration in mol/L into minus its log10.

Example entries and their recorded answers appear below.
**Query** Would you kindly share the measured pEC50 for Nc1ncnc2c1ncn2[C@H]1CC[C@@H](CO)O1 [ddA, 2',3'-dideoxyadenosine, reference compound] ?
**Result** 5.15

**Query** Cc1cn(C2CC(N=[N+]=[N-])C(COP(=O)(O)OCC3OC(n4cc(C)c(=O)[nH]c4=O)CC3N=[N+]=[N-])O2)c(=O)[nH]c1=O (centres unmarked) [AZT-P-AZT, reference compound] , same question.
**Result** 5.82

**Query** Cc1cn([C@H]2C[C@H](N=[N+]=[N-])[C@@H](COP(=O)(OCCC#N)OC[C@@H]3CC[C@H](n4cnc5c(N)ncnc54)O3)O2)c(=O)[nH]c1=O (some centres unmarked) , same question.
**Result** 6.15

**Query** Cc1cn([C@H]2C[C@H](N=[N+]=[N-])[C@@H](COP(=O)(O)OC[C@@H]3CC[C@H](n4cnc5c(=O)[nH]cnc54)O3)O2)c(=O)[nH]c1=O [AZT-P-ddI, phosphate ammonium salt] , same question.
**Result** 6.00

Attention now shifts to the item below.
**Query** Would you kindly share the measured pEC50 for Cc1cn([C@H]2C[C@H](N=[N+]=[N-])[C@@H](COP(=O)(O)OC[C@@H]3CC[C@H](n4cnc5c(N)ncnc54)O3)O2)c(=O)[nH]c1=O [AZT-P-ddA, phosphate ammonium salt] ?
**Result** 6.10

----------
experiment: Cytotoxicity (cell viability, trypan blue exclusion) in uninfected MT-2 cells
Assay type: cell-based
experimentalConditions: human; day 14, uninfected MT-2 cells; mean of triplicate cultures from two sets of experiments; linear regression; read-out: ID50 (drug concentration required to reduce the number of uninfected MT2 cells by 50%)
Structures can show the parent of a compound that is named as a salt.
Label Fulfilled when CC50 at 336 h is strictly below 200 µM; at or above that, label Not fulfilled.

Worked examples follow.
**Query** Could you please tell me whether CC50 at 336 h recorded for O=c1[nH]cnc2c1ncn2[C@H]1CC[C@@H](CO)O1 [ddI, 2',3'-dideoxyinsine, reference compound] is less than 200 µM?
**Result** Not fulfilled

**Query** Nc1ncnc2c1ncn2[C@H]1CC[C@@H](CO)O1 [ddA, 2',3'-dideoxyadenosine, reference compound] , same question.
**Result** Not fulfilled

**Query** Cc1cn([C@H]2C[C@H](N=[N+]=[N-])[C@@H](COP(=O)(O)OC[C@@H]3CC[C@H](n4cnc5c(=O)[nH]cnc54)O3)O2)c(=O)[nH]c1=O [AZT-P-ddI, phosphate ammonium salt] , same question.
**Result** Not fulfilled

**Query** Cc1cn([C@H]2C[C@H](N=[N+]=[N-])[C@@H](COP(=O)(OCCC#N)OC[C@@H]3CC[C@H](n4cnc5c(N)ncnc54)O3)O2)c(=O)[nH]c1=O (stereo partly drawn) , same question.
**Result** Not fulfilled

With those in mind, consider the next compound.
**Query** Could you please tell me whether CC50 at 336 h recorded for Cc1cn(C2CC(N=[N+]=[N-])C(COP(=O)(O)OCC3OC(n4cc(C)c(=O)[nH]c4=O)CC3N=[N+]=[N-])O2)c(=O)[nH]c1=O (stereo not drawn) [AZT-P-AZT, reference compound] is less than 200 µM?
**Result** Fulfilled

----------
Tested on: MT-2 cells
experiment: Cytotoxicity (cell viability, trypan blue exclusion) in uninfected MT-2 cells
Assay type: cell-based
experimentalConditions: uninfected MT-2 cells, in words
Procedure: Target MT-2 cells (an HTLV-I immortalized CD4+lymphoblastoid cell line) were propagated in growth medium (D-MEM supplemented with 15% heat-inactivated fetal bovine serum, 2mM glutamine, and 1% penicillin-streptomycin). MT-2 cells (2×10^5 cells per ml) were exposed to multiple drug concentrations (performed in triplicate). […] Cell viability was determined by the trypan blue exclusion method and compared to controls without drug. […]
Where a name gives a salt, the structure may show the parent alone.
quantityMeasured: toxicity group according to ID50

**Query** Would you kindly share the measured toxicity group according to ID50 for Nc1ncnc2c1ncn2[C@H]1CC[C@@H](CO)O1 [ddA, 2',3'-dideoxyadenosine, reference compound] ?
**Result** least toxicity

**Query** Cc1cn([C@H]2C[C@H](N=[N+]=[N-])[C@@H](COP(=O)(O)OC[C@@H]3CC[C@H](n4cnc5c(N)ncnc54)O3)O2)c(=O)[nH]c1=O [AZT-P-ddA, phosphate ammonium salt] , same question.
**Result** moderate toxicity

**Query** Cc1cn([C@H]2C[C@H](N=[N+]=[N-])[C@@H](COP(=O)(OCCC#N)OC[C@@H]3CC[C@H](n4cnc5c(N)ncnc54)O3)O2)c(=O)[nH]c1=O (stereo partly drawn) , same question.
**Result** moderate toxicity

**Query** Cc1cn([C@H]2C[C@H](N=[N+]=[N-])[C@@H](COP(=O)(O)OC[C@@H]3CC[C@H](n4cnc5c(=O)[nH]cnc54)O3)O2)c(=O)[nH]c1=O [AZT-P-ddI, phosphate ammonium salt] , same question.
**Result** moderate toxicity

---
**Query** Would you kindly share the measured toxicity group according to ID50 for O=c1[nH]cnc2c1ncn2[C@H]1CC[C@@H](CO)O1 [ddI, 2',3'-dideoxyinsine, reference compound] ?
**Result** least toxicity
